- Tested on: SUP-M2 (T-Cell Non-Hodgkin's Lymphoma);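 note: after 72 h of two-drug dosing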
- assay-summary: Bliss excess, mean over the matrix (fraction); higher = more synergy
Label scheme for Bliss excess: lower than 0.01 is Not fulfilled, 0.01 and above is Fulfilled.

{"molecule": "C=CCn1c(=O)c2cnc(Nc3ccc(N4CCN(C)CC4)cc3)nc2n1-c1cccc(C(C)(C)O)n1 [AZD1775] + O=C(c1cc(Cc2n[nH]c(=O)c3ccccc23)ccc1F)N1CCN(C(=O)C2CC2)CC1 [Olaparib] (first compound max 1 µM, partner max 10 µM)", "assigned-label": "Fulfilled"}
{"molecule": "Cc1cc2ncnn2cc1Nc1ncc2c(n1)n(C1CCOCC1)c(=O)n2C [AZD7648] + CCN(CCO)CCCOc1ccc2c(Nc3cc(CC(=O)Nc4cccc(F)c4)[nH]n3)ncnc2c1 [AZD2811] (first compound max 10 µM, 7x7, partner max 1 µM)", "assigned-label": "Not fulfilled"}
{"molecule": "Cc1c2c(nn1C)CSCc1cc(n(C)n1)CSc1cc(c3ccccc3c1)OCCCc1c(C(=O)O)n(C)c3c-2c(Cl)ccc13 [AZD5991] + C=CCn1c(=O)c2cnc(Nc3ccc(N4CCN(C)CC4)cc3)nc2n1-c1cccc(C(C)(C)O)n1 [AZD1775] (first compound max 1 µM, partner max 1 µM)", "assigned-label": "Not fulfilled"}
{"molecule": "Cc1c2c(nn1C)CSCc1cc(n(C)n1)CSc1cc(c3ccccc3c1)OCCCc1c(C(=O)O)n(C)c3c-2c(Cl)ccc13 [AZD5991] + C[C@@H](Nc1cc(F)cc(F)c1)c1cc(C(=O)N(C)C)cc2c(=O)cc(N3CCOCC3)oc12 [AZD8186] (first compound max 1 µM, 7x7, partner max 3 µM)", "assigned-label": "Not fulfilled"}
{"molecule": "CC1(C)CCC(CN2CCN(c3ccc(C(=O)NS(=O)(=O)c4ccc(NCC5CCOCC5)c([N+](=O)[O-])c4)c(Oc4cnc5[nH]ccc5c4)c3)CC2)=C(c2ccc(Cl)cc2)C1 [Venetoclax] + CCN(CCO)CCCOc1ccc2c(Nc3cc(CC(=O)Nc4cccc(F)c4)[nH]n3)ncnc2c1 [AZD2811] (first compound max 1 µM, 7x7, partner max 1 µM)", "assigned-label": "Fulfilled"}
{"molecule": "CCc1c2c(nc3ccc(O)cc13)-c1cc3c(c(=O)n1C2)COC(=O)[C@]3(O)CC [SN-38] + CN(C)CCCOc1ccc(-c2ccc3ncc4c(c3c2)n(C2CCOCC2)c(=O)n4C)cn1 [AZD0156] (first compound max 0.3 µM, 7x7, partner max 1 µM)", "assigned-label": "Fulfilled"}

Please turn your attention to the following entry.
Dear colleague, could you confirm whether COc1nnc2ccc(N3CCC(c4ccc(OCCN5CCN(C)C(=O)[C@H]5C)cc4)CC3)nn12 [AZD5153] + Cc1c2c(nn1C)CSCc1cc(n(C)n1)CSc1cc(c3ccccc3c1)OCCCc1c(C(=O)O)n(C)c3c-2c(Cl)ccc13 [AZD5991] (first compound max 1 µM, 7x7, partner max 1 µM) has Bliss excess at or above 0.01?
Not fulfilled

###

Catalogue of combination Emax values
- System: BHT-101 (Thyroid Gland Carcinoma)
- assay-summary: combination Emax (second highest fraction inhibited in the dose matrix, 72 h); higher = more inhibition; extreme values may be limits of the assay

For orientation, consider the following solved cases.
{"compound": "Cn1cnc2c(F)c(Nc3ccc(Br)cc3Cl)c(C(=O)NOCCO)cc21 [Selumetinib] + CC(C)n1c(=O)n(C)c2cnc3cc(F)c(-c4ccc(OCCCN5CCCCC5)nc4)cc3c21 [AZD1390] (first compound max 10 µM, 7x7, partner max 0.3 µM)", "test-target": "BHT-101 (Thyroid Gland Carcinoma)", "measurement-type": "combination Emax", "obs-value": 0.791}
{"compound": "CC1(C)CCC(CN2CCN(c3ccc(C(=O)NS(=O)(=O)c4ccc(NCC5CCOCC5)c([N+](=O)[O-])c4)c(Oc4cnc5[nH]ccc5c4)c3)CC2)=C(c2ccc(Cl)cc2)C1 [Venetoclax] + C[C@@H]1COCCN1C2=NC(=NC(=C2)C3(CC3)[S@](=N)(=O)C)C4=C5C=CNC5=NC=C4 [AZD6738] (first compound max 1 µM, 7x7, partner max 10 µM)", "test-target": "BHT-101 (Thyroid Gland Carcinoma)", "measurement-type": "combination Emax", "obs-value": 0.642}
{"compound": "CN(CCO)CC[C@H](CSc1ccccc1)Nc1ccc(S(=O)(=O)NC(=O)c2ccc(N3CCC([C@@H](O)c4ccccc4-c4ccc(Cl)cc4)CC3)cc2)cc1S(=O)(=O)C(F)(F)F [AZD4320] + CCN(CCO)CCCOc1ccc2c(Nc3cc(CC(=O)Nc4cccc(F)c4)[nH]n3)ncnc2c1 [AZD2811] (first compound max 1 µM, 7x7, partner max 1 µM)", "test-target": "BHT-101 (Thyroid Gland Carcinoma)", "measurement-type": "combination Emax", "obs-value": 0.279}
{"compound": "COc1cccc(OCCCN)c1-c1cc(Nc2cnc(C#N)cn2)n[nH]1 [Prexasertib] + CCc1c2c(nc3ccc(O)cc13)-c1cc3c(c(=O)n1C2)COC(=O)[C@]3(O)CC [SN-38] (first compound max 1 µM, 7x7, partner max 0.3 µM)", "test-target": "BHT-101 (Thyroid Gland Carcinoma)", "measurement-type": "combination Emax", "obs-value": 0.91}
{"compound": "CN(CCO)CC[C@H](CSc1ccccc1)Nc1ccc(S(=O)(=O)NC(=O)c2ccc(N3CCC([C@@H](O)c4ccccc4-c4ccc(Cl)cc4)CC3)cc2)cc1S(=O)(=O)C(F)(F)F [AZD4320] + C=CCn1c(=O)c2cnc(Nc3ccc(N4CCN(C)CC4)cc3)nc2n1-c1cccc(C(C)(C)O)n1 [AZD1775] (first compound max 1 µM, partner max 1 µM)", "test-target": "BHT-101 (Thyroid Gland Carcinoma)", "measurement-type": "combination Emax", "obs-value": 0.659}

Read the next record carefully.
Identify the measured combination Emax of Cc1c2c(nn1C)CSCc1cc(n(C)n1)CSc1cc(c3ccccc3c1)OCCCc1c(C(=O)O)n(C)c3c-2c(Cl)ccc13 [AZD5991] + C=CCn1c(=O)c2cnc(Nc3ccc(N4CCN(C)CC4)cc3)nc2n1-c1cccc(C(C)(C)O)n1 [AZD1775] (first compound max 1 µM, partner max 1 µM) for BHT-101 (Thyroid Gland Carcinoma).
0.732
